What follows is a record of pKi for Aβ1–40 fibrils (amyloid-β) (Homo sapiens).
In textbook form, pKi equals minus log to base ten of the concentration in mol/L.

Case COc1cc(/C=C/c2cc(C)c(O)c(C)c2)ccc1/C=C/c1ccc(C(=O)O)cc1 , Aβ1–40 fibrils (amyloid-β) (Homo sapiens), pKi recorded as 8.07

Case COc1cc(/C=C/c2ccc(O)cc2)ccc1/C=C/c1ccc(O)cc1 , Aβ1–40 fibrils (amyloid-β) (Homo sapiens), pKi recorded as 7.63
